Assay: yeast display, Sf9 membrane polyspecificity reagent, FACS + sequencing; frameworks hold sequencing errors
observedProperty: polyreactivity (PSR sort gate)

recordsequence=QVQLVESGGGLVQAGGSLRLSCAASGNIFYGYAMGWYRQAPGKERELVAAISGSSTYYADSVKGRFTISRDNAKNTVYLEMNSLKPEDTAVYYCAVPQYLYLQAGHGYRYYYWGQGTQVTVSS obsvalue="high polyreactivity"
recordsequence=QVQLVESGGGLVQAGGSLRLSCAASGRIFPSYAMGWYRQAPGKERELVAAITSSDSTYYADSVKGRFTISRDNAKNTVYLQMNSLKPEDTAVYYCAAAYSYSGWWWFGYWGQGTQVTVSS obsvalue="high polyreactivity"
recordsequence=QVQLLESRGGLVQAGGSLRLSCPASGITFSRCAMGWYRQAPGKERELVAAITSGGRTNYADSVKGRFTISRDNATNTVYLQMISLKPEDTAVYYCAASYYYLSWRMDYWGQGTQVTVSS obsvalue="high polyreactivity"
